system: HSV-1; assay: Plaque reduction assay, HSV-1 clinical isolates on Vero cells; type: cell-based; details: Human alphaherpesvirus 1, Vero, isolate HPG039, HSV-1 TK 85* or H58fs (169delC, 170delC, 171delC, or 172delC); read-out: Drug susceptibility Foscarnet (FOS)
property: IC50

Query: For the molecule O=C(O)P(=O)(O)O , report IC50.
Reply: < 250 µM

---

test system: HSV-1; assay: Plaque reduction assay, HSV-1 clinical isolates on Vero cells; assay type: cell-based; conditions: Human alphaherpesvirus 1, Vero, isolate HPG009, HSV-1 pol E992K (2974G>A); also pol A1169T; read-out: Drug susceptibility Penciclovir (PCV)
property: IC50

Query: For the compound Nc1nc2c(ncn2CCC(CO)CO)c(=O)[nH]1 [Penciclovir, penciclovir] , report IC50.
Reply: < 10 µM

---

test system: HSV-1; test: Plaque reduction assay, HSV-1 clinical isolates on Vero cells; assay type: cell-based; details: Human alphaherpesvirus 1, Vero, isolate HPG008, HSV-1 TK V204G (611T>G); read-out: Drug susceptibility Foscarnet (FOS)
pIC50: −log10 of the molar value.
property: pIC50

Query: For the compound O=C(O)P(=O)(O)O , report pIC50.
Reply: > 3.60

---

tested on: HSV-2; test: Plaque reduction assay, HSV-2 clinical isolates on Vero cells; assay type: cell-based; settings: Human alphaherpesvirus 2, Vero, read-out: Drug susceptibility Aciclovir (ACV), isolate HPG057, HSV-2 TK 98stop or A94fs (276delG, 278delG, 279delG, or 280delG)
pIC50: −log10 of the molar value.
property: pIC50

Query: For the compound Nc1nc2c(ncn2COCCO)c(=O)[nH]1 , report pIC50.
Reply: < 4.40

---

test system: HSV-2; experiment: Plaque reduction assay, HSV-2 clinical isolates on Vero cells; assay type: cell-based; conditions: Human alphaherpesvirus 2, Vero, isolate HPG044, HSV-2 TK M86L (256A>C); read-out: Drug susceptibility Foscarnet (FOS)
pIC50: −log10 of the molar value.
property: pIC50

Query: Please report the measured pIC50 for O=C(O)P(=O)(O)O tested on HSV-2.
Reply: > 3.60

---

system: HSV-1; test: Plaque reduction assay, HSV-1 clinical isolates on Vero cells; format: cell-based; conditions: Human alphaherpesvirus 1, Vero, read-out: Drug susceptibility Aciclovir (ACV), isolate HPG008, HSV-1 TK V204G (611T>G)
pIC50: −log10 of the molar value.
property: pIC50

Query: For the molecule Nc1nc2c(ncn2COCCO)c(=O)[nH]1 , report pIC50.
Reply: 4.40 to 5.52

---

tested on: HSV-1; test: Plaque reduction assay, HSV-1 clinical isolates on Vero cells; assay type: cell-based; conditions: Human alphaherpesvirus 1, Vero, isolate HPG055, HSV-1 TK V204G (611T>G); also pol A1169AT; read-out: Drug susceptibility (IC50 value)
property: IC50

Observe how each entry below is paired with its result.
INSERT INTO measurements (compound, system_tested, property, result) VALUES
  ('Nc1ccn(C[C@@H](CO)OCP(=O)(O)O)c(=O)n1 [Cidofovir, cidofovir]', 'HSV-1', 'IC50', '< 1.56 µM'),
  ('O=C(O)P(=O)(O)O [Foscarnet, foscarnet]', 'HSV-1', 'IC50', '< 50 µM');

Now, please, on to the next compound.
Query: Please report the measured IC50 for Nc1nc2c(ncn2CCC(CO)CO)c(=O)[nH]1 [Penciclovir, penciclovir] tested on HSV-1.
Reply: 9.34 µM

---

test system: HSV-1; assay: Plaque reduction assay, HSV-1 clinical isolates on Vero cells; assay type: cell-based; settings: Human alphaherpesvirus 1, Vero, isolate HPG045, HSV-1 pol L419I (1255C>A); also TK L49R, pol A1169T; read-out: Drug susceptibility Foscarnet (FOS)
pIC50: −log10 of the molar value.
property: pIC50

Query: For the compound O=C(O)P(=O)(O)O , report pIC50.
Reply: > 3.60

---

system: HSV-1; assay: Plaque reduction assay, HSV-1 clinical isolates on Vero cells; type: cell-based; conditions: Human alphaherpesvirus 1, Vero, isolate HPG027, HSV-1 TK V204G (611T>G); also pol S914L, A1169AT; read-out: Drug susceptibility Cidofovir (CDV)
property: IC50

Query: For the molecule Nc1ccn(C[C@@H](CO)OCP(=O)(O)O)c(=O)n1 , report IC50.
Reply: < 24 µM

---

System: HSV-1
Test: Plaque reduction assay, HSV-1 clinical isolates on Vero cells
Assay type: cell-based
Details: Human alphaherpesvirus 1, Vero, read-out: Drug susceptibility Cidofovir (CDV), isolate HPG005, HSV-1 TK A192T (574G>A)
Description: Viral isolates were used to infect a sub-confluent monolayer of Vero cells at a concentration of 75 or 50 plaque forming units (PFU) per well for HSV-1 and HSV-2, respectively. […] CMC medium typically used to create a semisolid interface and prevents indiscrimate viral spreading. Other materials (e.g. agar) may also be used to create this interface. […]
property: IC50

Query: For the molecule Nc1ccn(C[C@@H](CO)OCP(=O)(O)O)c(=O)n1 , report IC50.
Reply: < 24 µM

---

tested on: HSV-1; assay: Plaque reduction assay, HSV-1 clinical isolates on Vero cells; type: cell-based; conditions: Human alphaherpesvirus 1, Vero, read-out: Drug susceptibility Aciclovir (ACV), isolate HPG045, HSV-1 pol L419I (1255C>A); also TK L49R, pol A1169T
pIC50: −log10 of the molar value.
property: pIC50

Query: For the compound Nc1nc2c(ncn2COCCO)c(=O)[nH]1 [Aciclovir, acyclovir] , report pIC50.
Reply: 4.40 to 5.52

---

test system: HSV-1; test: Plaque reduction assay, HSV-1 clinical isolates on Vero cells; format: cell-based; conditions: Human alphaherpesvirus 1, Vero, isolate HPG050, HSV-1 TK Q34* (100C>T); read-out: Drug susceptibility Foscarnet (FOS)
pIC50: −log10 of the molar value.
property: pIC50

Query: For the compound O=C(O)P(=O)(O)O , report pIC50.
Reply: > 3.60

---

system: HSV-1; assay: Plaque reduction assay, HSV-1 clinical isolates on Vero cells; format: cell-based; conditions: Human alphaherpesvirus 1, Vero, isolate HPG011, HSV-1 TK Q125* (373C>T); read-out: Drug susceptibility Cidofovir (CDV)
property: IC50

Query: For the molecule Nc1ccn(C[C@@H](CO)OCP(=O)(O)O)c(=O)n1 , report IC50.
Reply: < 24 µM

---

tested on: HSV-1; assay: Plaque reduction assay, HSV-1 clinical isolates on Vero cells; assay type: cell-based; settings: Human alphaherpesvirus 1, Vero, read-out: Drug susceptibility (IC50 value), isolate HPG012, HSV-1 pol G985E (2954G>A); also TK A93V
pIC50 reference
Notebook: values listed as pIC50 are -log10 of the concentration (mol/L).

Observe how each entry below is paired with its result.
INSERT INTO results (compound_structure, numeric_readout) VALUES
  ('Nc1nc2c(ncn2CCC(CO)CO)c(=O)[nH]1', 5.01),
  ('O=C(O)P(=O)(O)O', 4.04);

Query: For the molecule Nc1ccn(C[C@@H](CO)OCP(=O)(O)O)c(=O)n1 , report pIC50.
Reply: 5.55

---

tested on: HSV-1; assay: Plaque reduction assay, HSV-1 clinical isolates on Vero cells; assay type: cell-based; details: Human alphaherpesvirus 1, Vero, read-out: Drug susceptibility Penciclovir (PCV), isolate HPG005, HSV-1 TK A192T (574G>A)
property: IC50

Query: For the molecule Nc1nc2c(ncn2CCC(CO)CO)c(=O)[nH]1 , report IC50.
Reply: < 10 µM

---

tested on: HSV-1; assay: Plaque reduction assay, HSV-1 clinical isolates on Vero cells; assay type: cell-based; conditions: Human alphaherpesvirus 1, Vero, read-out: Drug susceptibility Aciclovir (ACV), isolate HPG053, HSV-1 pol L802R + A834S (2405T>G, 2500G>T); also TK R176W
property: IC50

Query: For the molecule Nc1nc2c(ncn2COCCO)c(=O)[nH]1 , report IC50.
Reply: > 40 µM

---

system: HSV-2; assay: Plaque reduction assay, HSV-2 clinical isolates on Vero cells; format: cell-based; conditions: Human alphaherpesvirus 2, Vero, isolate HPG044, HSV-2 TK M86L (256A>C); read-out: Drug susceptibility Penciclovir (PCV)
pIC50: −log10 of the molar value.
property: pIC50

Query: For the compound Nc1nc2c(ncn2CCC(CO)CO)c(=O)[nH]1 , report pIC50.
Reply: < 4.40

---

Tested on: HSV-1
Assay: Plaque reduction assay, HSV-1 clinical isolates on Vero cells
Type: cell-based
Details: Human alphaherpesvirus 1, Vero, read-out: Drug susceptibility Aciclovir (ACV), isolate HPG047, HSV-1 pol E680 (2039A>C); also TK deletion (C) nt 548-553, pol A1169T
Source text: Viral isolates were used to infect a sub-confluent monolayer of Vero cells at a concentration of 75 or 50 plaque forming units (PFU) per well for HSV-1 and HSV-2, respectively. […] CMC medium typically used to create a semisolid interface and prevents indiscrimate viral spreading. Other materials (e.g. agar) may also be used to create this interface. […]
pIC50: −log10 of the molar value.
property: pIC50

Query: For the molecule Nc1nc2c(ncn2COCCO)c(=O)[nH]1 , report pIC50.
Reply: 4.40 to 5.52
